Recorded values, source patent US20090036448A1.

- Experimental target: MCH receptor (Homo sapiens, UniProt Q99705)
- Assay remarks: FLIPR/FDSS6000 functional assay: intracellular Ca2+ changes evoked by MCH
- Type: cell-based
- Recorded conditions: class by percent of control at 10^−7 M or by IC50; antagonist activity, 50 nM of MCH; read-out: class
pIC50: −log10 of the molar value. Counter-ions that a name gives are not always drawn.
Items are presented alongside their recorded pIC50.

Guide cases for pIC50, answers given:
CCN(C)c1cc(N[C@H]2CC[C@@H](NC(=O)c3cc(F)c(F)c(F)c3)CC2)nc(C)n1 [Example 176, hydrochloride] :: < 6.70
Cc1cc(N[C@H]2CC[C@@H](NC(=O)c3ccc(F)c(Cl)c3)CC2)nc(C)n1 [Example 171, hydrochloride] :: < 6.70
CNc1cc(N[C@H]2CC[C@@H](NC(=O)c3cc(F)c(F)c(F)c3)CC2)nc(C)n1 [Example 169, hydrochloride] :: 6.70 to 7.30
CCc1nc(N[C@H]2CC[C@@H](NC(=O)c3ccc(F)c(F)c3)CC2)cc(N(C)C)n1 [Example 32, hydrochloride] :: > 7.30
CCn1ccc2c(N[C@H]3CC[C@@H](NC(=O)c4ccc(F)c(Cl)c4)CC3)ncnc21 [Example 189, hydrochloride] :: < 6.70

What value of pIC50 has been recorded for this entry: CCc1nc(N[C@H]2CC[C@@H](NC(=O)c3cc(F)c(F)c(F)c3)CC2)cc(N(C)C)n1 [Example 177, hydrochloride]
> 7.30

Also check Cc1nc(N[C@H]2CC[C@@H](NC(=O)c3ccc(F)c(Cl)c3)CC2)cc(N2CCN(C)CC2)n1 [Example 41, dihydrochloride]
< 6.70

Consider next the compound CN(C)c1cc(N[C@H]2CC[C@@H](NC(=O)c3ccc(F)c(Cl)c3)CC2)nc(-c2ccccc2)n1 [Example 178, hydrochloride] in the same way.
< 6.70

Now the compound Cc1nc(N[C@H]2CC[C@@H](NC(=O)c3ccc(Cl)c(F)c3)CC2)cc(N(C)C)n1 [Example 9, hydrochloride]
6.70 to 7.30

Moving on to Cc1nc(N[C@H]2CC[C@@H](NC(=O)c3ccc(F)cc3)CC2)cc(N(C)C)n1 [Example 7, hydrochloride]
6.70 to 7.30

Follow-up entry: Cc1nc(N[C@H]2CC[C@@H](NC(=O)c3ccc(Cl)c(Cl)c3)CC2)cc(N(C)C)n1 [Example 8, hydrochloride]
> 7.30

Follow-up entry: Cc1nc(N[C@H]2CC[C@@H](NC(=O)c3ccc(C(F)(F)F)cc3)CC2)cc(N(C)C)n1 [Example 19, hydrochloride]
< 6.70

And Cc1nc(N[C@H]2CC[C@@H](NC(=O)c3ccccc3F)CC2)cc(N(C)C)n1 [Example 22, hydrochloride] ?
< 6.70

Entry to check: Cc1nc(N[C@H]2CC[C@@H](NC(=O)c3cncc(Br)c3)CC2)cc(N(C)C)n1 [Example 12, dihydrochloride]
6.70 to 7.30

----------
- Experimental target: MCH receptor (Homo sapiens)
- Assay remarks: FLIPR/FDSS6000 functional assay: intracellular Ca2+ changes evoked by MCH
- Assay type: cell-based
- Recorded conditions: class by percent of control at 10^−7 M or by IC50; antagonist activity, 50 nM of MCH; read-out: class
Structures can show the parent of a compound that is named as a salt.
Attribute measured: IC50

Recorded IC50 of Cc1nc(N)cc(N[C@H]2CC[C@@H](NC(=O)c3cc(F)c(F)c(F)c3)CC2)n1 [Example 168, hydrochloride] , please.
> 0.2 µM

How about Cc1nc(N[C@H]2CC[C@@H](NC(=O)c3ccc(F)c(Cl)c3)CC2)cc(N2CCCCC2)n1 [Example 37, hydrochloride] ?
> 0.2 µM

----------
The entries below are paired with their reported IC50.
- Experimental target: UniProt:Q99705
- Assay remarks: FLIPR/FDSS6000 functional assay: intracellular Ca2+ changes evoked by MCH
- Assay type: cell-based
- Recorded conditions: class by percent of control at 10^−7 M or by IC50; antagonist activity, 50 nM of MCH; read-out: class
Structures can show the parent of a compound that is named as a salt.

Request the reported IC50 associated with Cc1nc(N[C@H]2CC[C@@H](C(=O)Nc3ccc(F)c(F)c3)CC2)cc(N(C)C)n1 [Example 192, hydrochloride]
50 to 200 nM

Param item: CN(C)c1nccc(N[C@H]2CC[C@@H](NC(=O)c3ccc(F)c(Cl)c3)CC2)n1 [Example 44, hydrochloride]
< 50 nM

----------
Measured pIC50, listed per entry.
- Experimental target: MCH receptor (Homo sapiens, UniProt Q99705)
- Assay remarks: FLIPR/FDSS6000 functional assay: intracellular Ca2+ changes evoked by MCH
- Type: cell-based
- Recorded conditions: class by percent of control at 10^−7 M or by IC50; antagonist activity, 50 nM of MCH; read-out: class
pIC50: −log10 of the molar value. Counter-ions that a name gives are not always drawn.

Look over these answered cases.
Cc1nc(N[C@H]2CC[C@@H](NC(=S)Nc3ccc(F)c(Cl)c3)CC2)cc(N(C)C)n1 [Example 183, hydrochloride] :: < 6.70
Cn1ccc2c(N[C@H]3CC[C@@H](NC(=O)c4cc(F)c(F)c(F)c4)CC3)ncnc21 [Example 188, hydrochloride] :: 6.70 to 7.30
Cc1nc(N[C@H]2CC[C@@H](NC(=O)c3cccc(OC(F)(F)F)c3)CC2)cc(N(C)C)n1 [Example 18, hydrochloride] :: > 7.30
Cc1nc(N[C@H]2CC[C@@H](NC(=O)c3cc(F)c(F)c(F)c3)CC2)cc(N(C)C)n1 [Example 11, hydrochloride] :: > 7.30

Record lookup: for MCH receptor (Homo sapiens, UniProt Q99705), what pIC50 belongs to Cc1nc(N[C@H]2CC[C@@H](NC(=O)c3cccc(Cl)c3)CC2)cc(N(C)C)n1 [Example 24, hydrochloride] ?
> 7.30

----------
- Experimental target: MCH receptor (Homo sapiens, UniProt Q99705)
- Assay remarks: FLIPR/FDSS6000 functional assay: intracellular Ca2+ changes evoked by MCH
- Type: cell-based
- Recorded conditions: class by percent of control at 10^−7 M or by IC50; antagonist activity, 50 nM of MCH; read-out: class
pIC50: −log10 of the molar value. Counter-ions that a name gives are not always drawn.
Attribute measured: pIC50

Guide cases for pIC50, answers given:
Cc1nc(N[C@H]2CC[C@@H](C(=O)Oc3ccc(F)c(Cl)c3)CC2)cc(N(C)C)n1 [Example 194, hydrochloride] :: < 6.70
Cc1nc(N[C@H]2CC[C@@H](NC(=O)c3ccc(F)c(F)c3)CC2)cc(N(C)C)n1 [Example 5, hydrochloride] :: > 7.30
Cc1nc(N[C@H]2CC[C@@H](NC(=O)c3cc(F)cc(F)c3)CC2)cc(N(C)C)n1 [Example 13, hydrochloride] :: 6.70 to 7.30
Cc1nc(N[C@H]2CC[C@@H](NC(=O)c3cccc(F)c3)CC2)cc(N(C)C)n1 [Example 23, hydrochloride] :: 6.70 to 7.30
Cc1nc(N[C@H]2CC[C@@H](NC(=O)c3ccc(F)c(Cl)c3)CC2)c(C)c(N(C)C)n1 [Example 180, hydrochloride] :: < 6.70
Cc1nc(NC2CC2)cc(N[C@H]2CC[C@@H](NC(=O)c3cc(F)c(F)c(F)c3)CC2)n1 [Example 173, hydrochloride] :: < 6.70
Cc1cnc(N(C)C)nc1N[C@H]1CC[C@@H](NC(=O)c2ccc(F)c(Cl)c2)CC1 [Example 46, hydrochloride] :: < 6.70
Cc1nc(N[C@H]2CC[C@@H](CNC(=O)c3ccc(F)c(F)c3)CC2)cc(N(C)C)n1 [Example 29, hydrochloride] :: < 6.70

Quick one: pIC50 for Cc1nc(N[C@H]2CC[C@@H](NC(=O)c3cc(C(F)(F)F)cc(C(F)(F)F)c3)CC2)cc(N(C)C)n1 [Example 27, hydrochloride] ?
6.70 to 7.30

Ok, now Cc1cc(N[C@H]2CC[C@@H](NC(=O)c3ccc(F)c(F)c3)CC2)nc(N(C)C)n1 [Example 43, hydrochloride]
6.70 to 7.30

Also check CCNc1nccc(N[C@H]2CC[C@@H](NC(=O)c3ccc(F)c(F)c3)CC2)n1 [Example 34, hydrochloride]
< 6.70

----------
- Experimental target: MCH receptor (Homo sapiens, UniProt Q99705)
- Assay remarks: FLIPR/FDSS6000 functional assay: intracellular Ca2+ changes evoked by MCH
- Format: cell-based
- Recorded conditions: class by percent of control at 10^−7 M or by IC50; antagonist activity, 50 nM of MCH; read-out: class
pIC50: −log10 of the molar value. Where a name gives a salt, the structure may show the parent alone.
Attribute measured: pIC50

Answered examples (2):
CN(C)c1cc(N[C@H]2CC[C@@H](NC(=O)c3ccc(F)c(Cl)c3)CC2)nc(C(F)(F)F)n1 [Example 47, hydrochloride] :: < 6.70
CCN(C)c1nccc(N[C@H]2CC[C@@H](NC(=O)c3ccc(F)c(F)c3)CC2)n1 [Example 35, hydrochloride] :: < 6.70

Moving on to the next molecule.
Any idea what pIC50 was measured for COc1cc(N[C@H]2CC[C@@H](NC(=O)c3ccc(F)c(Cl)c3)CC2)nc(OC)n1 [Example 185, hydrochloride] ?
< 6.70
